normalized growth reference
# TEST_DESCRIPTION: chemical genetic growth profiling, strain panel (AID 1159580);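 further: tested at 20 µM; growth read once vehicle control cultures reached saturation at 30 °C; 1 = growth at the plate median or of vehicle wells; lower values mean less growth of the strain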
# REPORTED_CONDITIONS: S. cerevisiae deletion strains, growth OD, locus YLR418C, strain cdc73, stronger effect = lower value
The campaign covered roughly 5,500 compounds. About 2,000 (36%) were called active. About 18% were inconclusive and are not listed. The list shows a part of the results.

// worked examples, normalized growth included
molecule=O=c1[nH]oc2c1CCNC2 observation_type="normalized growth" readout_value="1.05 (inactive)"
molecule="C=C1C(=O)OC2CC1C(OC(C)=O)C/C(C)=C/CC/C(C)=C/CC[C@]2(C)O (stereo partly specified)" observation_type="normalized growth" readout_value="1.06 (inactive)"
molecule="C=C1C(=O)O[C@@H]2C3O[C@]3(C)CC/C=C(\\C)CC[C@@H]12 (stereo partly specified)" observation_type="normalized growth" readout_value="0.42 (active)"
molecule="COC(=O)C(O)c1ccccc1 (stereo unspecified)" observation_type="normalized growth" readout_value="0.953 (inactive)"
molecule="CC(C(=O)O)c1ccc(C(=O)c2cccs2)cc1 (stereo unspecified)" observation_type="normalized growth" readout_value="1.03 (inactive)"

The record that follows has no normalized growth shown yet.
[in] Fill in: normalized growth of `O=C(O)CN1C(=O)c2cccc3cccc(c23)C1=O` is ___
[out] 0.988 (inactive)

---

# TEST_DESCRIPTION: chemical genetic growth profiling, strain panel (AID 1159580);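 further: tested at 20 µM; growth read once vehicle control cultures reached saturation at 30 °C; 1 = growth at the plate median or of vehicle wells; lower values mean less growth of the strain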
# REPORTED_CONDITIONS: S. cerevisiae deletion strains, growth OD, locus YGL248W, strain PDE1, stronger effect = lower value
About 2,000 (36%) of roughly 5,500 compounds were called active. Inconclusive results (about 18%) are left out. Some of the results follow.
normalized growth reference
Just the number, please, no unit after it.

molecule=CC(=O)N[C@@H](CS)C(=O)O observation_type="normalized growth" readout_value=1.02

[in] Fill in: normalized growth of C=C1CCC2C(CC2(C)C)C(=O)CCC1O (stereo not given) is ___
[out] 1.05

[in] And the next one, CC1=CC2C(CC1=O)C(C)=CCC2C(C)C (stereo not given) ?
[out] 0.952

---

# TEST_DESCRIPTION: chemical genetic growth profiling, strain panel (AID 1159580);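 further: tested at 20 µM; growth read once vehicle control cultures reached saturation at 30 °C; 1 = growth at the plate median or of vehicle wells; lower values mean less growth of the strain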
# REPORTED_CONDITIONS: S. cerevisiae deletion strains, growth OD, locus YNL020C, strain ARK1, stronger effect = lower value
In all, about 5,500 compounds went through this assay and about 2,000 (36%) were called active. About 18% were inconclusive and are not listed. The list shows a part of the results.
OBSERVATION_TYPE: normalized growth
Just the number, please, no unit after it.

molecule=CC(C)(C)c1ccc(C(=O)NNc2c(Cl)cccc2Cl)cc1 readout_value=0.889
molecule=Cc1onc(-c2c(F)cccc2Cl)c1C(=O)ON=C1C2CC3CC(C2)CC1C3 readout_value=0.955
molecule=CC1(C)OC(=O)C(=Cc2cccn2-c2ccc(C(F)(F)F)cc2)C(=O)O1 readout_value=0.914
molecule=CC1(C)OC(=O)C(=Cc2cccn2-c2ccc(OC(F)(F)F)cc2)C(=O)O1 readout_value=0.922

[in] Fill in: normalized growth of `O=C(Nc1ccc(OC(F)(F)F)cc1)OC1CN(C(c2ccccc2)c2ccccc2)C1` is ___
[out] 0.969

[in] And the next one, `Cc1onc(-c2c(Cl)cccc2Cl)c1C(=O)NC(C)(C)CC(C)(C)C` ?
[out] 0.971
